- Test system: E. coli
- protocol_description: Geometric mean of MICs, selectivity and targeting indices
- Type: cell-based
- condition: geometric mean of MICs against the 6 E. coli strains; >128 counted as 256 μM
Square brackets hold non-standard residues; d marks the D form. Peptide text beside a SMILES is read from it.
quantity_measured: GM E. coli
Number plus unit, in that order.

QUERY: Endpoint output: GM E. coli of CC[C@H](C)[C@H](NC(=O)CNC(=O)[C@H]1CCCN1C(=O)[C@H](CCCCN)NC(=O)[C@H](Cc1c[nH]c2ccccc12)NC(=O)[C@@H](NC(=O)[C@H](CCCCN)NC(=O)[C@@H](NC(=O)[C@@H](N)Cc1c[nH]c2ccccc12)[C@@H](C)CC)[C@@H](C)CC)C(=O)N[C@@H](CCCCN)C(=O)N[C@@H](CCCCN)C(=O)N[C@@H](Cc1c[nH]c2ccccc12)C(=O)N[C@@H](CCCCN)C(=O)N[C@@H](CCCCN)C(=O)O [Peptide 9] (H-WIKIWK[dP]GIKKWKK-OH; N-terminus and C-terminus assumed) . Value?
RESULT: 17.959 µM

The measured values listed here are drawn from paper doi:10.1101/679977v1.
